- target or test system: human c-kit (Homo sapiens, UniProt P10721)
- Construct: GST-tagged recombinant kinase domain of the human c-kit; GST; host or cells: SF-9 insect cells
- Sequence (P10721 589-937 limits assumed): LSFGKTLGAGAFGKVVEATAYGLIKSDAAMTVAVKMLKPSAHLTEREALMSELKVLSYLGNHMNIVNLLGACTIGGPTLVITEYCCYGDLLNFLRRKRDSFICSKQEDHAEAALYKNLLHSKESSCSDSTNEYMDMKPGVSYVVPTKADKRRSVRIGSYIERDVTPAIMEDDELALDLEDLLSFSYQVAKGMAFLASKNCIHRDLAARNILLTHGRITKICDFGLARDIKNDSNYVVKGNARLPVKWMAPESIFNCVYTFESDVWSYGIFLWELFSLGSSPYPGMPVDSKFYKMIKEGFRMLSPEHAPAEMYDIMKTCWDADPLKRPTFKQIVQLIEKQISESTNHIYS
- assay details: cKIT-Kinase HTRF-Assay (assay 4)
- Type: biochemical
- condition label: GST-tagged kinase domain of human c-kit, 10 μM ATP

[
  {
    "molecule": "Nc1n[nH]c2nccc(-c3ccc(NC(=O)Nc4cccc(C(F)(F)F)c4)cc3)c12 [PA2, reference compound]",
    "target or test system": "human c-kit (Homo sapiens, UniProt P10721)",
    "IC50": "≤ 0.1 µM"
  },
  {
    "molecule": "CN(C)C(=O)C1(c2cc(-c3ccc(NC(=O)Nc4cccc(C(F)(F)F)c4)cc3)c3c(N)nn(C)c3n2)CC1 [Example 1.10]",
    "target or test system": "human c-kit (Homo sapiens, UniProt P10721)",
    "IC50": "1 to 10 µM"
  },
  {
    "molecule": "Cn1nc(N)c2c(-c3ccc(NC(=O)Nc4cccc(C(F)(F)F)c4)cc3)cc(C3(C(N)=O)CC3)nc21 [Example 2.1]",
    "target or test system": "human c-kit (Homo sapiens, UniProt P10721)",
    "IC50": "0.1 to 1 µM"
  },
  {
    "molecule": "CN(C)C(=O)C[C@@H]1C[C@H](c2cc(-c3ccc(NC(=O)Nc4cccc(C(F)(F)F)c4)cc3)c3c(N)nn(C)c3n2)C1(C)C [Example 8.4]",
    "target or test system": "human c-kit (Homo sapiens, UniProt P10721)",
    "IC50": "1 to 10 µM"
  },
  {
    "molecule": "Cn1nc(N)c2c(-c3ccc(NC(=O)Nc4cccc(C(F)(F)F)c4)cc3)cc(C3(C(=O)N4CCCC4)CC3)nc21 [Example 1.13]",
    "target or test system": "human c-kit (Homo sapiens, UniProt P10721)",
    "IC50": "1 to 10 µM"
  },
  {
    "molecule": "Cn1nc(N)c2c(-c3ccc(NC(=O)Nc4cccc(C(F)(F)F)c4)cc3)ccnc21 [PA4, reference compound]",
    "target or test system": "human c-kit (Homo sapiens, UniProt P10721)",
    "IC50": "0.1 to 1 µM"
  },
  {
    "molecule": "CCOC(=O)C1(c2cc(-c3ccc(NC(=O)Nc4cccc(C(F)(F)F)c4)cc3)c3c(N)nn(C)c3n2)CC1 [Example 1.2]",
    "target or test system": "human c-kit (Homo sapiens, UniProt P10721)",
    "IC50": "1 to 10 µM"
  },
  {
    "molecule": "COC(=O)C[C@@H]1C[C@H](c2cc(-c3ccc(NC(=O)Nc4cccc(C(F)(F)F)c4)cc3)c3c(N)nn(C)c3n2)C1(C)C [Example 8.2]",
    "target or test system": "human c-kit (Homo sapiens, UniProt P10721)",
    "IC50": "1 to 10 µM"
  },
  {
    "molecule": "Cn1nc(N)c2c(-c3ccc(NC(=O)Nc4cccc(C(F)(F)F)c4)cc3)cc(C3CCC3)nc21 [Example 6.1]",
    "target or test system": "human c-kit (Homo sapiens, UniProt P10721)",
    "IC50": "1 to 10 µM"
  },
  {
    "molecule": "Cc1ccc(F)c(NC(=O)Nc2ccc(-c3cc(C4(C(=O)N5CCCC5)CC4)nc4c3c(N)nn4C)cc2)c1 [Example 4.3]",
    "target or test system": "human c-kit (Homo sapiens, UniProt P10721)",
    "IC50": "1 to 10 µM"
  },
  {
    "molecule": "CN(C)CCNC(=O)C1(c2cc(-c3ccc(NC(=O)Nc4cccc(C(F)(F)F)c4)cc3)c3c(N)nn(C)c3n2)CC1 [Example 1.9]",
    "target or test system": "human c-kit (Homo sapiens, UniProt P10721)",
    "IC50": "0.1 to 1 µM"
  },
  {
    "molecule": "Cn1nc(N)c2c(-c3ccc(NC(=O)Nc4cccc(C(F)(F)F)c4)cc3)cc(C3(C(=O)NC4CC4)CC3)nc21 [Example 1.12]",
    "target or test system": "human c-kit (Homo sapiens, UniProt P10721)",
    "IC50": "1 to 10 µM"
  },
  {
    "molecule": "Cn1nc(N)c2c(-c3ccc(NC(=O)Nc4cccc(C(F)(F)F)c4)cc3)cc(C3(C(=O)NCCO)CC3)nc21 [Example 1.14]",
    "target or test system": "human c-kit (Homo sapiens, UniProt P10721)",
    "IC50": "0.1 to 1 µM"
  },
  {
    "molecule": "Cn1nc(N)c2c(-c3ccc(NC(=O)Nc4cccc(C(F)(F)F)c4)cc3)cc(C3(C(=O)NCCN4CCOCC4)CC3)nc21 [Example 1.8]",
    "target or test system": "human c-kit (Homo sapiens, UniProt P10721)",
    "IC50": "1 to 10 µM"
  }
]

====

Recorded IC50 values for a group of molecules are listed next.
- target or test system: human c-kit (Homo sapiens)
- Construct: GST-tagged recombinant kinase domain of the human c-kit; GST
- assay details: cKIT-Kinase HTRF-Assay (assay 4)
- condition label: GST-tagged kinase domain of human c-kit, 10 μM ATP

[
  {
    "molecule": "CNC(=O)C1(c2cc(-c3ccc(NC(=O)Nc4cccc(C(F)(F)F)c4)cc3)c3c(N)nn(C)c3n2)CC1",
    "target or test system": "human c-kit (Homo sapiens)",
    "IC50": "0.1 to 1 µM"
  },
  {
    "molecule": "CCOC(=O)C1(c2cc(-c3ccc(NC(=O)Nc4ccccc4)cc3)c3c(N)nn(C)c3n2)CC1",
    "target or test system": "human c-kit (Homo sapiens)",
    "IC50": "1 to 10 µM"
  },
  {
    "molecule": "Cn1nc(N)c2c(-c3ccc(NC(=O)Nc4ccccc4)cc3)ccnc21 [PA6, reference compound]",
    "target or test system": "human c-kit (Homo sapiens)",
    "IC50": "≤ 0.1 µM"
  },
  {
    "molecule": "Cc1ccc(F)c(NC(=O)Nc2ccc(-c3ccnc4[nH]nc(N)c34)cc2)c1 [PA3, reference compound]",
    "target or test system": "human c-kit (Homo sapiens)",
    "IC50": "≤ 0.1 µM"
  }
]

====

- target or test system: human c-kit (Homo sapiens)
- Construct: GST-tagged recombinant kinase domain of the human c-kit; GST; host or cells: SF-9 insect cells
- assay details: cKIT-Kinase HTRF-Assay (assay 4)
- Format: biochemical
- condition label: IC50 assay 4/IC50 assay 2
Recorded Selectivity vs. cKit values for a group of compounds are listed next.
assay readout: Selectivity vs. cKit

[
  {
    "compound": "Cn1nc(N)c2c(-c3ccc(NC(=O)Nc4cccc(C(F)(F)F)c4)cc3)cc(C3(C(=O)NCCN4CCOCC4)CC3)nc21",
    "assay readout": "Selectivity vs. cKit",
    "recorded value": 15
  },
  {
    "compound": "CN(C)C(=O)C1(c2cc(-c3ccc(NC(=O)Nc4cccc(C(F)(F)F)c4)cc3)c3c(N)nn(C)c3n2)CC1",
    "assay readout": "Selectivity vs. cKit",
    "recorded value": 12
  },
  {
    "compound": "Cn1nc(N)c2c(-c3ccc(NC(=O)Nc4cccc(C(F)(F)F)c4)cc3)cc(C3(C(=O)NCCO)CC3)nc21",
    "assay readout": "Selectivity vs. cKit",
    "recorded value": 11
  },
  {
    "compound": "CCN(CC)C(=O)C1(c2cc(-c3ccc(NC(=O)Nc4cccc(C(F)(F)F)c4)cc3)c3c(N)nn(C)c3n2)CC1",
    "assay readout": "Selectivity vs. cKit",
    "recorded value": 24
  },
  {
    "compound": "Cc1ccc(F)c(NC(=O)Nc2ccc(-c3cc(C4(C(=O)N(C)C)CC4)nc4c3c(N)nn4C)cc2)c1",
    "assay readout": "Selectivity vs. cKit",
    "recorded value": 15
  },
  {
    "compound": "Cn1nc(N)c2c(-c3ccc(NC(=O)Nc4cccc(C(F)(F)F)c4)cc3)ccnc21 [PA4, reference compound]",
    "assay readout": "Selectivity vs. cKit",
    "recorded value": 1.6
  },
  {
    "compound": "Cc1ccc(F)c(NC(=O)Nc2ccc(-c3ccnc4[nH]nc(N)c34)cc2)c1 [PA3, reference compound]",
    "assay readout": "Selectivity vs. cKit",
    "recorded value": 0.26
  }
]

====

- target or test system: Tie2 (Homo sapiens)
- Sequence (Q02763 23-1124): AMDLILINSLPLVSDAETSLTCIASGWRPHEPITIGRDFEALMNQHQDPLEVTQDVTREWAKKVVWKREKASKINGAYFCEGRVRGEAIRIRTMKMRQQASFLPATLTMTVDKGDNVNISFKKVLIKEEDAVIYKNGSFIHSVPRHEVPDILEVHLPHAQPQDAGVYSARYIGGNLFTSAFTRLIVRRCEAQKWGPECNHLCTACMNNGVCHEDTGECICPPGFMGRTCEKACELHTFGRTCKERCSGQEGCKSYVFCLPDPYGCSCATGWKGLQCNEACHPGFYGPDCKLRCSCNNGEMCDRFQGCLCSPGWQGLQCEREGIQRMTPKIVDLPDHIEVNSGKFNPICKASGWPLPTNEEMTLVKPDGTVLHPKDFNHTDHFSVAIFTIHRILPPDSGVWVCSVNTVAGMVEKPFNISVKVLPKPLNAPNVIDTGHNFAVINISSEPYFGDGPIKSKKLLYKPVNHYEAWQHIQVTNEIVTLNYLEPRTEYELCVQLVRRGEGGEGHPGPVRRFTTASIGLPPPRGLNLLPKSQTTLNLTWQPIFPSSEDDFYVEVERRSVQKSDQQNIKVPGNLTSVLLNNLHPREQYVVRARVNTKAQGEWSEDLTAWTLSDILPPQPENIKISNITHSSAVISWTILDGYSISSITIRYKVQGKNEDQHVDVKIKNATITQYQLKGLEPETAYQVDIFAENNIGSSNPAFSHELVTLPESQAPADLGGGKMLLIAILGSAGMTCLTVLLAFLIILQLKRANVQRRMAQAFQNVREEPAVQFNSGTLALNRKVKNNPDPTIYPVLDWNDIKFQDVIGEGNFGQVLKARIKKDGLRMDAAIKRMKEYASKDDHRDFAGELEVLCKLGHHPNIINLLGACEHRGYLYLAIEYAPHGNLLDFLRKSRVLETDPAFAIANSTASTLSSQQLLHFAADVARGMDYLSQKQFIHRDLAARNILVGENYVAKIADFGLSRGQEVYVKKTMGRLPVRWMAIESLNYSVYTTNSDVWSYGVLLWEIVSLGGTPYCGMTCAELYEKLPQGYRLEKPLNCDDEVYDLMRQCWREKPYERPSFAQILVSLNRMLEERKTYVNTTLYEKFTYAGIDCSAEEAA
- assay details: Tie2 ELISA assay (assay 1): cellular Tie2 autophosphorylation
- Assay type: cell-based
- Set-up: expressed in transfected cells; host or cells: CHO (DHFR-deficient), stably transfected
- condition label: CHO cells stably transfected with Tie2, stimulated by angiopoietin-2; Tie2 autophosphorylation by sandwich-ELISA; read-out: Tie 2 activity (assay 1)
pIC50: −log10 of the molar value.

[
  {
    "compound": "Cc1ccc(F)c(NC(=O)Nc2ccc(-c3ccnc4c3c(N)nn4C)cc2)c1 [PA5, reference compound]",
    "target or test system": "Tie2 (Homo sapiens)",
    "pIC50": "≥ 7.00"
  },
  {
    "compound": "CCN(CC)C(=O)C1(c2cc(-c3ccc(NC(=O)Nc4cccc(C(F)(F)F)c4)cc3)c3c(N)nn(C)c3n2)CC1 [Example 1.11]",
    "target or test system": "Tie2 (Homo sapiens)",
    "pIC50": "≥ 7.00"
  },
  {
    "compound": "Cc1ccc(F)c(NC(=O)Nc2ccc(-c3ccnc4[nH]nc(N)c34)cc2)c1 [PA3, reference compound]",
    "target or test system": "Tie2 (Homo sapiens)",
    "pIC50": "6.00 to 7.00"
  }
]
